Where do these numbers come from? They come from ChEMBL document CHEMBL4513216.

test: Toxicity liver stage against HepG2, at 10uM; format: cell-based; set-up: test concentration 10 uM, cell line HepG2-A16-CD81EGFP; conditions: human, HepG2-A16-CD81EGFP cells; read-out: INHIBITION
# key: entry, value: cytotoxicity at 10 µM
The number alone won't do; follow it with the unit.

Guide cases for cytotoxicity at 10 µM, answers given:
CCN(Cc1ccc(O)c(C(=O)O)c1)CC1CCOCC1
-5.24%
CCN(CC)C(=O)c1ccc(NC(=O)CNc2ccc(Br)cc2F)cc1
4.52%
CC(=O)NCC1CCCN(C(=O)Cc2c(C)noc2C)C1 (stereo unspecified)
17.4%
Cc1ccc(CN2CCc3ncnc(-c4ccoc4)c3CC2)o1
0.968%
CC(C)(Oc1ccc(F)cc1)C(=O)NCc1ccco1
-9.19%
O=C(Nc1ccnc(OC2CCOC2)c1)c1ccc(F)cc1Cl (stereo unspecified)
3.44%

Query string: Which cytotoxicity at 10 µM value belongs to `COCC(=O)N1CC[C@]2(O)CCN(C(=O)CCc3ccsc3)C[C@@H]2C1` ?
Result string: 0.689%

Query string: Next entry: `CNC(=O)C(C)(C)N1CCC[C@H]1C(=O)NCC1CC1`
Result string: 2.05%

Query string: Next entry: O=C1CC(c2cccs2)Cc2nc(O)c(C(=O)N3CCCC3)cc21 (stereo unspecified)
Result string: -3.96%

Query string: Next entry: Cc1cc2cccc(C(=O)N3CCOC4(CNCCOC4)C3)c2o1 (stereo unspecified)
Result string: -2.21%

Query string: Next entry: `COc1ncccc1C(=O)N1CC[C@H]2C[C@@H](c3noc(C)n3)O[C@@H]2C1`
Result string: 4.76%

====

assay: Toxicity liver stage against HepG2, at 10uM; assay type: cell-based; set-up: test concentration 10 uM, cell line HepG2-A16-CD81EGFP; details: human, HepG2-A16-CD81EGFP cells; read-out: INHIBITION
# key: entry, value: cytotoxicity at 10 µM
Form entry: value (%) — number only.

CSc1nnc(CC2CCN(C(=O)COc3cccnc3)CC2)n1C
-45.9
Cc1cc(C(=O)N(C)Cc2nc(-c3ccccn3)no2)c(C)o1
2.84
CC(C)n1cnc2c(-c3cccnc3)nc(C3CCNCC3)cc21
-114
COc1ccc2c(c1)C(=O)NC1(CC2)CCN(Cc2ccncc2)C1 (configuration not stated)
3.44
Cc1cc(=O)n(C)cc1NC(=O)Cc1cccc(F)c1
-3.86

Query string: Which cytotoxicity at 10 µM value belongs to CC(Cn1cccn1)NC(=O)CCC(=O)c1cccs1 (configuration not stated) ?
Result string: -2.39

Query string: Next entry: `Cc1cc(NC(=O)CN2CCc3cnc(C(C)C)nc3C2)on1`
Result string: -12.1

Query string: Next entry: Cc1nc2n(n1)CC(NCc1nc(-c3ccccn3)no1)CC2 (configuration not stated)
Result string: -12.4

Query string: Next entry: Cc1cccc(NC(=O)NCC2(N3CCOCC3)CCSC2)c1 (configuration not stated)
Result string: 5.02

Query string: Next entry: c1cc(CN2C[C@@H]3OCCN(CC4CCCO4)[C@@H]3C2)co1 (some centres not stated)
Result string: 4.8

Query string: Next entry: `Cc1cnn(C2CN(c3nc(C)cc(N(C)C)n3)C2)c1`
Result string: -5.12

Query string: Next entry: CCCOC1CCCN(c2nc(CC)nc3c2cnn3C)C1 (configuration not stated)
Result string: -3.29
